- target desc: UniProt P25929
- Sequence (P25929 whole entry): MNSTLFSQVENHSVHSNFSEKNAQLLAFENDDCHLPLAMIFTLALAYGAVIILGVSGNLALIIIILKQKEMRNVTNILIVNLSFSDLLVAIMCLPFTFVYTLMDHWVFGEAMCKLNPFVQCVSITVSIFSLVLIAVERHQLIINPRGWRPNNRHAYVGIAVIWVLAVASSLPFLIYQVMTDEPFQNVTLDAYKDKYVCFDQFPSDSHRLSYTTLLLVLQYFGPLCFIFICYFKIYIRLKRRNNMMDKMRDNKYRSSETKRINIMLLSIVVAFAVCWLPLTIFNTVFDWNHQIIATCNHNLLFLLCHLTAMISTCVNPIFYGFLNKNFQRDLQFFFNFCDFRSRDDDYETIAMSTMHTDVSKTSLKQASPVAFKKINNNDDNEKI
- assay procedure: Displacement of [3H]-UR-MK114 from Y1R in human SK-N-MC cells
- Type: cell-based
measured quantity: Ki (nM)

CN(C)c1ccc(/C=C/C=C/c2sc3ccccc3[n+]2CCCC(=O)NCCNC(=O)CCCC(=O)/N=C(/N)NCCC[C@@H](NC(=O)C(c2ccccc2)c2ccccc2)C(=O)NCc2ccc(O)cc2)cc1.O=C([O-])C(F)(F)F: 42

[I] Cc1cc(/C=C/c2cc3c4c(c2)CCCN4CCC3)cc(C)[n+]1CCCCNC(=O)/N=C(/N)NCCC[C@@H](NC(=O)C(c1ccccc1)c1ccccc1)C(=O)NCc1ccc(O)cc1.O=C([O-])C(F)(F)F
[II] N=C(N)N(CCC[C@@H](NC(=O)C(c1ccccc1)c1ccccc1)C(=O)NCc1ccc(O)cc1)C(=O)NCCCCN
(Q) Returns: the argument ( I or II ) having the larger Ki. Give the label under which the chosen entry appears.
(A) I

[a] Cc1cc(/C=C/c2cc3c4c(c2)CCCN4CCC3)cc(C)[n+]1CCCNC(=O)CCCC(=O)/N=C(/N)NCCC[C@@H](NC(=O)C(c1ccccc1)c1ccccc1)C(=O)NCc1ccc(O)cc1.O=C([O-])C(F)(F)F
[b] Cc1cc(/C=C\C=C2\N(C)c3ccc4ccccc4c3C2(C)C)cc(C)[n+]1CCOCCOCCNC(=O)CCCCCCC(=O)/N=C(/N)NCCC[C@@H](NC(=O)C(c1ccccc1)c1ccccc1)C(=O)NCc1ccc(O)cc1.O=C([O-])C(F)(F)F
[c] Cc1cc(/C=C/C=C/c2ccc(N(C)C)cc2)cc(C)[n+]1CCOCCOCC(=O)/N=C(/N)NCCC[C@@H](NC(=O)C(c1ccccc1)c1ccccc1)C(=O)NCc1ccc(O)cc1.O=C([O-])C(F)(F)F
(Q) Please list the entries, largest Ki first. Ranked list of labels, please, in the requested order.
(A) b, a, c
(b: 130 nM, a: 38 nM, c: 24 nM)
